tgt: K-Ras^G12C : hSOS1 interaction (Homo sapiens)
experimental-details: Biochemical assay 1: K-Ras^G12C interaction assay with hSOS1 (HTRF)
Type: binding
assay-context: read-out: Assay 1 (KRAS-SOS Interaction) activity expressed as IC50

# compound, IC50
measured = [
    ("COc1cc2nc(C)nc(N[C@@H](C)c3ccc(-c4ccccc4S(=O)(=O)N(C)C)s3)c2cc1OC (racemic)", "2160 nM"),
    ("COc1cc2nc(C)nc(NC(C)c3ccc(-c4ccccc4CN4CCCC(C(N)=O)C4)s3)c2cc1OC (centres unmarked)", "176 nM"),
    ("COc1cc2nc(C)nc(N[C@@H](C)c3ccc(-c4cccc5[nH]ccc45)s3)c2cc1OC (racemic)", "5590 nM"),
    ("COc1cc2nc(C)nc(NC(C)c3ccc(-c4cccc(CCO)c4)s3)c2cc1OC (centres unmarked)", "3500 nM"),
    ("COc1cc2nc(C)nc(N[C@@H](C)c3ccc(-c4cccc(/C=C/C#N)c4)s3)c2cc1OC (racemic)", "16100 nM"),
    ("COc1cc2nc(C)nc(N[C@H](C)c3cccc(/C=C/Cc4ccccc4)c3)c2cc1OC", "8550 nM"),
    ("COc1cc2nc(C)nc(N[C@H](C)c3cccc(-c4c(C)noc4C)c3)c2cc1OC", "687 nM"),
    ("COc1cc2nc(C)nc(N[C@H](C)c3cccc(-n4ccnc4)c3)c2cc1OC", "344 nM"),
    ("CC[C@@H](O)c1ccccc1-c1ccc(C(C)Nc2nc(C)nc3cc(OC)c(OC)cc23)s1 (some centres unmarked)", "231 nM"),
    ("COc1cc2nc(C)nc(NC(C)c3ccc(Br)s3)c2cc1OC (centres unmarked)", "1080 nM"),
    ("COc1cc2nc(C)nc(NC(C)c3ccc(-c4ccccc4CNc4ccccn4)s3)c2cc1OC (centres unmarked)", "799 nM"),
    ("COc1cc2nc(C)nc(NC(C)c3cccc4cn(C)nc34)c2cc1OC (centres unmarked)", "18200 nM"),
    ("COc1cc2nc(C)nc(N[C@H](C)c3cccc(-c4ccccc4NS(C)(=O)=O)c3)c2cc1OC", "452 nM"),
    ("COc1cc2nc(C)nc(N[C@H](C)c3cccc(-c4cn[nH]c4C)c3)c2cc1OC", "145 nM"),
    ("COc1cc2nc(C)nc(NC(C)c3cc(-c4ccccc4CN)cs3)c2cc1OC (centres unmarked)", "91.4 nM"),
    ("COc1cc2nc(C)nc(NC(C)c3ccc4nsnc4c3)c2cc1OC (centres unmarked)", "6950 nM"),
    ("COc1cc2nc(C)nc(N[C@H](C)c3cccc(CN)c3)c2cc1OC", "4880 nM"),
]

---

tgt: K-Ras^G12C : hSOS1 interaction (Homo sapiens, UniProt Q07889)
experimental-details: Biochemical assay 1: K-Ras^G12C interaction assay with hSOS1 (HTRF)
Type: binding
assay-context: read-out: Assay 1 (KRAS-SOS Interaction) activity expressed as IC50
pIC50: −log10 of the molar value.
Threshold check on pIC50: at or above 6 gives condition met, strictly below gives condition not met.

# molecule, class
rows = [
    ("COc1cc2nc(C)nc(N[C@H](C)c3cccc(-c4ccc(CO)s4)c3)c2cc1OC [Example 107]", "condition met"),
    ("COc1cc2nc(C)nc(NC(C)c3ccc(-c4ccccc4CN4CCC(N(C)C)C4)s3)c2cc1OC (centres unmarked) [Example 238]", "condition met"),
    ("COc1cc2nc(C)nc(N[C@H](C)c3cccc(-c4ccoc4)c3)c2cc1OC [Example 86]", "condition met"),
    ("COc1cc2nc(C)nc(N[C@@H](C)c3ccc(-c4ccc(C)cc4C)s3)c2cc1OC (racemic) [Example 161]", "condition not met"),
    ("COc1cc2nc(C)nc(NC(C)c3ccc(-c4cnc5n4CCC5)s3)c2cc1OC (centres unmarked) [Example 219]", "condition met"),
]

Cited source: patent US20240083857A1
